- System: FBCL-2T
- EXPERIMENTAL_DETAILS: FRET-melting, FBCL-2T
- Assay type: binding
- SETUP_CONDITIONS: ligand 2 μM, DNA 0.2 μM, 10 mM KCl, 90 mM LiCl, pH 7.2
Consider the cut-off 10 °C. If the recorded ΔT1/2 (°C) FBCL-2T is strictly smaller, the label is 1; if not, the label is -1.

Solved cases below.
{"COMPOUND": "CN(C)CCCNCc1ccc(-c2nc(-c3ccc(CNCCCN(C)C)cc3)c3ccc(-c4ccccc4)cc3n2)cc1 [Compound 12f]", "CAT": -1}
{"COMPOUND": "CN(C)CCCNCc1ccc(-c2cc(-c3ccc(CNCCCN(C)C)cc3)c3cccc(-c4ccccc4)c3n2)cc1 [Compound 13e]", "CAT": 1}
{"COMPOUND": "CN(C)CCCCNCc1ccc(-c2cc(-c3ccc(CNCCCCN(C)C)cc3)c3cc(-c4ccccc4)ccc3n2)cc1 [Compound 13b]", "CAT": -1}
{"COMPOUND": "CC1CN(CCCNCc2ccc(-c3nc(-c4ccc(CNCCCN5CCNC(C)C5)cc4)c4cccc(-c5ccccc5)c4n3)cc2)CCN1 (stereo not shown) [Compound 12m]", "CAT": -1}
{"COMPOUND": "CN(C)CCCCNCc1ccc(-c2nc(-c3ccc(CNCCCCN(C)C)cc3)c3cccc(-c4ccccc4)c3n2)cc1 [Compound 12l]", "CAT": -1}

-- ask Determine whether this compound shows ΔT1/2 (°C) FBCL-2T lower than 10 °C (ties excluded): CN1CCN(CCCNCc2ccc(-c3nc(-c4ccc(CNCCCN5CCN(C)CC5)cc4)c4ccc(-c5ccccc5)cc4n3)cc2)CC1 [Compound 12i]
-- reply -1

-- ask Does the reported ΔT1/2 (°C) FBCL-2T of the following compound sit strictly below 10 °C? CN(C)CCCNCc1ccc(-c2nc(-c3ccc(CNCCCN(C)C)cc3)c3cc(-c4ccccc4)ccc3n2)cc1 [Compound 12b]
-- reply 1

-- ask Quick check: does CN(C)CCCCNCc1ccc(-c2nc(-c3ccc(CNCCCCN(C)C)cc3)c3cc(-c4ccccc4)ccc3n2)cc1 [Compound 12c] have ΔT1/2 (°C) FBCL-2T under 10 °C?
-- reply -1

-- ask Determine if CN1CCN(CCCCNCc2ccc(-c3cc(-c4ccc(CNCCCCN5CCN(C)CC5)cc4)c4cc(-c5ccccc5)ccc4n3)cc2)CC1 [Compound 13d] shows ΔT1/2 (°C) FBCL-2T strictly lower than 10 °C.
-- reply 1
